tgt: Fyn SH2 variant V13 (T3S/T4R/S6A/K8L), His-tag protein (human)
protocolDescription: ELISA
pEC50: −log10 of the molar value. Square brackets hold non-standard residues; d marks the D form. Ends that are not written are not given here. * marks the point of attachment. Biotin = O=C1N[C@H]2[C@H](CS[C@H]2CCCCC(=O)*)N1; pY = N[C@@H](Cc1ccc(OP(=O)(O)O)cc1)C(=O)O; Ahx = NCCCCCC(=O)O

{"binder": "{Biotin-Ahx-Ahx}-EPQ[pY]EEIPIYL [biotin-ahx-ahx-EPQpYEEIPIYL]", "pEC50": "> 6.70"}
